# Tested on: rodent lifetime carcinogenesis bioassay, tumor incidence TD50
# METHOD: carcinogenic potency in animals, long-term in vivo studies, CPDB compilation (AID 1745844)
# EXPERIMENTAL_SETUP: rat; strain Fischer 344; males; in feed; site: palate + tongue; lesion: squamous-cell papilloma; dosed 104 weeks; study length 105 weeks
MEASURED_METRIC: TD50 (mg/kg/day)
# value in mg/kg/day; strip the unit string

// recorded TD50 for `OCC(CO)(CBr)CBr` : 300

----------
# Tested on: rodent lifetime carcinogenesis bioassay, tumor incidence TD50
# METHOD: carcinogenic potency in animals, long-term in vivo studies, CPDB compilation (AID 1745844)
# EXPERIMENTAL_SETUP: mouse; strain CDF1; females; in feed; site: lung; lesion: adenoma; dosed 67 weeks; study length 67 weeks
MEASURED_METRIC: TD50 (mg/kg/day)
// return numeric value only (unit: mg/kg/day, not printed)

In plain terms, `Cc1cccn2c1nc1ccc(N)nc12` has a documented TD50 of 166

----------
# Test system: rodent lifetime carcinogenesis bioassay, tumor incidence TD50
# METHOD: carcinogenic potency in animals, long-term in vivo studies, CPDB compilation (AID 1745844)
# EXPERIMENTAL_SETUP: mouse; strain CD-1 HaM/ICR; males; in feed; site: liver; lesion: hepatoma; dosed 77 weeks; study length 90 weeks
MEASURED_METRIC: TD50

TD50 reported for this compound `Cc1cccc(N)c1` : 1440 mg/kg/day

Data point: `Cc1ccc(N)cc1N` ; TD50 = 201 mg/kg/day

Record summary for `COc1ccc(OC)c(/C=C/c2ccc(N)cc2)c1` : reported TD50 = 376 mg/kg/day

----------
# Test system: rodent lifetime carcinogenesis bioassay, tumor incidence TD50
# METHOD: carcinogenic potency in animals, long-term in vivo studies, CPDB compilation (AID 1745844)
# EXPERIMENTAL_SETUP: rat; strain F344/DuCrj; females; in drinking water; site: kidney/pelvis; lesion: transitional-cell papilloma; dosed 108 weeks; study length 108 weeks
MEASURED_METRIC: TD50

What the record says about `NCC(=O)O` : TD50 is 25700 mg/kg/day

----------
# System: rodent lifetime carcinogenesis bioassay, tumor incidence TD50
# METHOD: carcinogenic potency in animals, long-term in vivo studies, CPDB compilation (AID 1745844)
# EXPERIMENTAL_SETUP: rat; strain Fischer 344; females; in drinking water; site: tongue; lesion: squamous-cell papilloma; dosed 100 weeks; study length 126 weeks
MEASURED_METRIC: TD50 (mg/kg/day)
The figure you give is taken to be in mg/kg/day; do not add the unit.

Quick note, TD50 for `O=NN1CCOCC1` landed at 3.49

----------
# Tested on: rodent lifetime carcinogenesis bioassay, tumor incidence TD50
# METHOD: carcinogenic potency in animals, long-term in vivo studies, CPDB compilation (AID 1745844)
# EXPERIMENTAL_SETUP: rat; strain ACI; females; in drinking water; site: liver; lesion: several types; types named in the paper; dosed 68 weeks; study length 68 weeks
MEASURED_METRIC: TD50

Per the record, `C[C@@H]1C[C@]2(O[C@@H]2C)C(=O)O[C@@H]2CCN(C)C/C=C(/COC(=O)[C@]1(C)O)C2=O` has TD50 of 1.52 mg/kg/day

----------
# Tested on: rodent lifetime carcinogenesis bioassay, tumor incidence TD50
# METHOD: carcinogenic potency in animals, long-term in vivo studies, CPDB compilation (AID 1745844)
# EXPERIMENTAL_SETUP: mouse; strain B6C3F1; males; in feed; site: liver; lesion: hepatocellular adenoma + hepatocellular carcinoma + neoplastic nodule; dosed 78 weeks; study length 91 weeks
MEASURED_METRIC: TD50 (mg/kg/day)
State the answer as a number, implicitly in mg/kg/day.

Some molecules with known TD50 results, for comparison:
• CN(C)c1ccc(Cc2ccc(N(C)C)cc2)cc1 = 558
• OC(c1ccc(Cl)cc1)(c1ccc(Cl)cc1)C(Cl)(Cl)Cl = 32.9

Could you now look at the following molecule, please?
The measured TD50 associated with `Cc1ccc(Cl)cc1N` reads 249

----------
# System: rodent lifetime carcinogenesis bioassay, tumor incidence TD50
# METHOD: carcinogenic potency in animals, long-term in vivo studies, CPDB compilation (AID 1745844)
# EXPERIMENTAL_SETUP: rat; strain Fischer 344; females; in feed; site: liver; lesion: hepatocellular adenoma + hepatocellular carcinoma + neoplastic nodule; dosed 106 weeks; study length 106 weeks
MEASURED_METRIC: TD50 (mg/kg/day)
Hi! Could you send only the number? It should be in mg/kg/day, unit omitted.

Reading of TD50 for `NC(=O)c1ccccc1C(N)=O` with rodent lifetime carcinogenesis bioassay, tumor incidence TD50: 5390

----------
# Test system: rodent lifetime carcinogenesis bioassay, tumor incidence TD50
# METHOD: carcinogenic potency in animals, long-term in vivo studies, CPDB compilation (AID 1745844)
# EXPERIMENTAL_SETUP: mouse; strain B6C3F1; males; inhaled; site: liver; lesion: hepatocellular carcinoma; dosed 95 weeks; study length 95 weeks
MEASURED_METRIC: TD50

// TD50 value for `FC(F)=C(F)F` : 190 mg/kg/day

----------
# System: rodent lifetime carcinogenesis bioassay, tumor incidence TD50
# METHOD: carcinogenic potency in animals, long-term in vivo studies, CPDB compilation (AID 1745844)
# EXPERIMENTAL_SETUP: rat; strain Fischer 344; females; by gavage; site: liver; lesion: hepatocellular adenoma + hepatocellular carcinoma + neoplastic nodule; dosed 103 weeks; study length 105 weeks
For each record, check the reported TD50: if it is below 5000 mg/kg/day write t, else write f.

Please review the following examples before continuing.
* O=C1CCC(=O)O1 | t
* CCCC(Cl)CCCC(Cl)CCC(Cl)CCC(Cl)CCC(Cl)CCCC(Cl)CCC (stereo not given) | f
* CCCCCl | t

Shifting focus to the molecule that follows.
Dear reviewer, please state whether `ClC(Cl)(Cl)C(Cl)(Cl)Cl` has TD50 strictly beneath 5000 mg/kg/day.
f

----------
# System: rodent lifetime carcinogenesis bioassay, tumor incidence TD50
# METHOD: carcinogenic potency in animals, long-term in vivo studies, CPDB compilation (AID 1745844)
# EXPERIMENTAL_SETUP: rat; strain Fischer 344; males; in drinking water; site: skin; lesion: sebaceous gland carcinoma + sebaceous adenoma; dosed 104 weeks; study length 104 weeks
MEASURED_METRIC: TD50

Record summary for `Cc1ccc(S(=O)(=O)Oc2ccc(N=Nc3ccc(-c4ccc(N=Nc5c(O)ccc6cc(S(=O)(=O)O)cc(S(=O)(=O)O)c56)c(C)c4)cc3C)cc2)cc1` : reported TD50 = 23.4 mg/kg/day

----------
# System: rodent lifetime carcinogenesis bioassay, tumor incidence TD50
# METHOD: carcinogenic potency in animals, long-term in vivo studies, CPDB compilation (AID 1745844)
# EXPERIMENTAL_SETUP: mouse; strain B6C3F1; males; by gavage; site: liver; lesion: hepatocellular adenoma + hepatocellular carcinoma + neoplastic nodule; dosed 78 weeks; study length 90 weeks
MEASURED_METRIC: TD50
# number then unit; no other words

Use these answered entries as a reference point.
- CC(Cl)(Cl)Cl: 39700 mg/kg/day
- ClC(Cl)=C(Cl)Cl: 123 mg/kg/day
- ClCC(Cl)Cl: 65 mg/kg/day

Quick note, TD50 for `ClC=C(Cl)Cl` landed at 421 mg/kg/day

So, `ClC(Cl)(Cl)C(Cl)(Cl)Cl` ? Its TD50 was 585 mg/kg/day

Just so you know, measured TD50 for `O=S1(=O)CC=CC1` came out at 415 mg/kg/day

----------
# System: rodent lifetime carcinogenesis bioassay, tumor incidence TD50
# METHOD: carcinogenic potency in animals, long-term in vivo studies, CPDB compilation (AID 1745844)
# EXPERIMENTAL_SETUP: mouse; strain ICR/Jcl; females; in drinking water; site: lung; lesion: adenoma; dosed 104 weeks; study length 104 weeks
Calls of active or inactive are those of the source. No rule for the calls is given here.
MEASURED_METRIC: TD50

Readout TD50 for `O=S(O)O` , test system rodent lifetime carcinogenesis bioassay, tumor incidence TD50, was 33600 mg/kg/day (inactive)

----------
# Test system: rodent lifetime carcinogenesis bioassay, tumor incidence TD50
# METHOD: carcinogenic potency in animals, long-term in vivo studies, CPDB compilation (AID 1745844)
# EXPERIMENTAL_SETUP: mouse; strain D2B6F1 mice; males; in feed; site: liver; lesion: hepatocellular carcinoma; dosed 60 weeks; study length 61 weeks
MEASURED_METRIC: TD50

TD50 for ClC1=C(Cl)C2(Cl)C3C(Cl)C(Cl)CC3C1(Cl)C2(Cl)Cl (stereo unspecified) is 6.09 mg/kg/day

----------
# Test system: rodent lifetime carcinogenesis bioassay, tumor incidence TD50
# METHOD: carcinogenic potency in animals, long-term in vivo studies, CPDB compilation (AID 1745844)
# EXPERIMENTAL_SETUP: rat; strain Fischer 344; males; inhaled; site: oral mucosa + gingiva + pharynx + tongue; lesion: squamous-cell papilloma; dosed 104 weeks; study length 104 weeks
MEASURED_METRIC: TD50

The observed TD50 for `C=CC(=C)Cl` when tested with rodent lifetime carcinogenesis bioassay, tumor incidence TD50 stands at 11.1 mg/kg/day

These measurements were taken from PubChem BioAssay AID1745844.
